System under test: Protein N-lysine methyltransferase METTL21A (Homo sapiens) (UniProt Q8WXB1)
Sequence (Q8WXB1 whole entry): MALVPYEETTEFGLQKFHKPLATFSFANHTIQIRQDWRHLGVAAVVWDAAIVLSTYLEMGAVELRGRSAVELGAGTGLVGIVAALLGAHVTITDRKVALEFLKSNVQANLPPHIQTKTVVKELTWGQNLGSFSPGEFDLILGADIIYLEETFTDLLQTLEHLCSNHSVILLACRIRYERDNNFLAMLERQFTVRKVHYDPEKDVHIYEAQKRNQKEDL
Assay name: Inhibition of METTL21A (unknown origin) using biotin-labeled histone substrate assessed as residual activity at 50 uM in presence of [3H-Me]SAM by scintillation proximity assay relative to control
Quantity name: Activity (%)

> print(dat)
                                   compound  quantity.name  recorded.number
1    O=C(c1cccc(Br)c1)N1C[C@H]2CCCN[C@H]2C1       Activity               94
2  CN1CCCC2(CCCN2C(=O)c2cccc(Br)c2)C1 (stereo unspecified)       Activity              100
3        O=C(c1cccc(Br)c1)N1CCC2(CCNCC2)CC1       Activity               98
4    O=C(c1cccc(Br)c1)N1CC[C@H]2NCC[C@H]2C1       Activity               99
5  CN1CCCCC12CCCN(C(=O)c1cccc(Br)c1)C2 (stereo unspecified)       Activity              100
6        CN1CCC2(CCCN2C(=O)c2cccc(Br)c2)CC1       Activity               99

----------
System under test: Protein arginine N-methyltransferase 6 (Homo sapiens) (UniProt Q96LA8)
Assay name: Inhibition of PRMT6 (unknown origin) using biotin-labeled histone substrate assessed as residual activity at 50 uM in presence of [3H-Me]SAM by scintillation proximity assay relative to control
Quantity name: Activity (%)

> print(dat)
                                    molecule  recorded.number
 1        O=C(c1cccc(Br)c1)N1CCC2(CCNCC2)CC1               98
 2  C[N+]1(C)CCCCC12CCN(C(=O)c1cccc(Br)c1)CC2               98
 3  CN1CCCC2(CCCN2C(=O)c2cccc(Br)c2)C1 (stereo not drawn)               98
 4   O=C(c1cccc(Br)c1)N1C[C@@H]2CCN[C@@H]2C1              102
 5     CN1CCC2(CC1)CCN(C(=O)c1cccc(Br)c1)CC2              109
 6  CN1CCCC2(CCCN(C(=O)c3cccc(Br)c3)C2)C1 (stereo not drawn)              101
 7  CN1CCC[C@@H]2CN(C(=O)c3cccc(Br)c3)C[C@@H]21              106
 8    O=C(c1cccc(Br)c1)N1CC[C@H]2NCC[C@H]2C1              108
 9        CN1CCCC12CCN(C(=O)c1cccc(Br)c1)CC2              107
10  O=C(c1cccc(Br)c1)N1CCC2CNCC2C1 (stereo not drawn)              108
11  O=C(c1cccc(Br)c1)N1CCCC2(CCCCN2)C1 (stereo not drawn)              100
12  CN1C[C@H]2CCCN(C(=O)c3cccc(Br)c3)[C@H]2C1              106
13        CN1CCC2(CCCN2C(=O)c2cccc(Br)c2)CC1              104

----------
System under test: N-lysine methyltransferase KMT5A (Homo sapiens, UniProt Q9NQR1)
Sequence (Q9NQR1 whole entry): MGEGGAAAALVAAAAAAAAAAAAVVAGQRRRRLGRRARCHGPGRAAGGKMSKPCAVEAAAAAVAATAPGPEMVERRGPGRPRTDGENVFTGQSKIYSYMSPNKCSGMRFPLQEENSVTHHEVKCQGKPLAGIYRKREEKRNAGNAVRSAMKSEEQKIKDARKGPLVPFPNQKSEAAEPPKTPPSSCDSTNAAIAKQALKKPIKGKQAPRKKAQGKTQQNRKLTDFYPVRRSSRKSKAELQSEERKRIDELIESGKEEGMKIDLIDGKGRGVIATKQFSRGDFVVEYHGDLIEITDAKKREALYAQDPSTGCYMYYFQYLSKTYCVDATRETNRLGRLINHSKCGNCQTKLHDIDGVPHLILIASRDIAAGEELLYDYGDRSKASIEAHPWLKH
Assay name: Inhibition of SETD8 in HEK293T cells assessed as reduction in H4K20me level after 2 to 3 days by Western blot analysis
pEC50: −log10 of the molar value.
Quantity name: pEC50

> print(dat)
                       structure.notation  result
1    CC1(C)C(=O)N=C2C1=C(O)C(=O)c1ccccc12  > 5.30
2  O=C1C(Cl)=C(NCCN2CCOCC2)C(=O)c2ncccc21  > 5.30
3   Cc1ccc(/N=C2\CC(=O)c3sc(C)nc3C2=O)cc1  > 6.00

----------
System under test: Protein arginine N-methyltransferase 6 (Homo sapiens) (UniProt Q96LA8)
Assay name: Inhibition of PRMT6 (unknown origin) using biotin-labeled histone substrate assessed as residual activity at 50 uM in presence of [3H-Me]SAM by scintillation proximity assay relative to control
Quantity name: Activity (%)

> print(dat)
                                    compound  recorded.number
 1       CN1CCCCC12CCN(C(=O)c1cccc(Br)c1)CC2              103
 2  CN1CCCC12CCCN(C(=O)c1cccc(Br)c1)C2 (stereo unspecified)              103
 3    O=C(c1cccc(Br)c1)N1C[C@H]2CCCN[C@H]2C1              106
 4        O=C(c1cccc(Br)c1)N1CCCC2(CCNCC2)C1              112
 5  CN1CCC2(CCCN(C(=O)c3cccc(Br)c3)C2)C1 (stereo unspecified)              105
 6  O=C(c1cccc(Br)c1)N1C[C@@H]2CC3CCCCN3[C@@H]2C1 (stereo partly specified)              103
 7  CN1CC[C@H]2CN(C(=O)c3cccc(Br)c3)C[C@H]21              109
 8  O=C(c1cccc(Br)c1)N1CC[C@@H]2[C@@H](CC3CCCCN32)C1 (stereo partly specified)              101
 9  O=C(c1cccc(Br)c1)N1C[C@@H]2CC3CCCN3[C@@H]2C1 (stereo partly specified)              107
10  O=C(c1cccc(Br)c1)N1CCC[C@@H]2CNC[C@@H]21              109
11  CN1CCCCC12CCCN(C(=O)c1cccc(Br)c1)C2 (stereo unspecified)               89

----------
System under test: Histone-lysine N-methyltransferase 2C (Homo sapiens) (UniProt Q8NEZ4)
Sequence (Q8NEZ4 whole entry): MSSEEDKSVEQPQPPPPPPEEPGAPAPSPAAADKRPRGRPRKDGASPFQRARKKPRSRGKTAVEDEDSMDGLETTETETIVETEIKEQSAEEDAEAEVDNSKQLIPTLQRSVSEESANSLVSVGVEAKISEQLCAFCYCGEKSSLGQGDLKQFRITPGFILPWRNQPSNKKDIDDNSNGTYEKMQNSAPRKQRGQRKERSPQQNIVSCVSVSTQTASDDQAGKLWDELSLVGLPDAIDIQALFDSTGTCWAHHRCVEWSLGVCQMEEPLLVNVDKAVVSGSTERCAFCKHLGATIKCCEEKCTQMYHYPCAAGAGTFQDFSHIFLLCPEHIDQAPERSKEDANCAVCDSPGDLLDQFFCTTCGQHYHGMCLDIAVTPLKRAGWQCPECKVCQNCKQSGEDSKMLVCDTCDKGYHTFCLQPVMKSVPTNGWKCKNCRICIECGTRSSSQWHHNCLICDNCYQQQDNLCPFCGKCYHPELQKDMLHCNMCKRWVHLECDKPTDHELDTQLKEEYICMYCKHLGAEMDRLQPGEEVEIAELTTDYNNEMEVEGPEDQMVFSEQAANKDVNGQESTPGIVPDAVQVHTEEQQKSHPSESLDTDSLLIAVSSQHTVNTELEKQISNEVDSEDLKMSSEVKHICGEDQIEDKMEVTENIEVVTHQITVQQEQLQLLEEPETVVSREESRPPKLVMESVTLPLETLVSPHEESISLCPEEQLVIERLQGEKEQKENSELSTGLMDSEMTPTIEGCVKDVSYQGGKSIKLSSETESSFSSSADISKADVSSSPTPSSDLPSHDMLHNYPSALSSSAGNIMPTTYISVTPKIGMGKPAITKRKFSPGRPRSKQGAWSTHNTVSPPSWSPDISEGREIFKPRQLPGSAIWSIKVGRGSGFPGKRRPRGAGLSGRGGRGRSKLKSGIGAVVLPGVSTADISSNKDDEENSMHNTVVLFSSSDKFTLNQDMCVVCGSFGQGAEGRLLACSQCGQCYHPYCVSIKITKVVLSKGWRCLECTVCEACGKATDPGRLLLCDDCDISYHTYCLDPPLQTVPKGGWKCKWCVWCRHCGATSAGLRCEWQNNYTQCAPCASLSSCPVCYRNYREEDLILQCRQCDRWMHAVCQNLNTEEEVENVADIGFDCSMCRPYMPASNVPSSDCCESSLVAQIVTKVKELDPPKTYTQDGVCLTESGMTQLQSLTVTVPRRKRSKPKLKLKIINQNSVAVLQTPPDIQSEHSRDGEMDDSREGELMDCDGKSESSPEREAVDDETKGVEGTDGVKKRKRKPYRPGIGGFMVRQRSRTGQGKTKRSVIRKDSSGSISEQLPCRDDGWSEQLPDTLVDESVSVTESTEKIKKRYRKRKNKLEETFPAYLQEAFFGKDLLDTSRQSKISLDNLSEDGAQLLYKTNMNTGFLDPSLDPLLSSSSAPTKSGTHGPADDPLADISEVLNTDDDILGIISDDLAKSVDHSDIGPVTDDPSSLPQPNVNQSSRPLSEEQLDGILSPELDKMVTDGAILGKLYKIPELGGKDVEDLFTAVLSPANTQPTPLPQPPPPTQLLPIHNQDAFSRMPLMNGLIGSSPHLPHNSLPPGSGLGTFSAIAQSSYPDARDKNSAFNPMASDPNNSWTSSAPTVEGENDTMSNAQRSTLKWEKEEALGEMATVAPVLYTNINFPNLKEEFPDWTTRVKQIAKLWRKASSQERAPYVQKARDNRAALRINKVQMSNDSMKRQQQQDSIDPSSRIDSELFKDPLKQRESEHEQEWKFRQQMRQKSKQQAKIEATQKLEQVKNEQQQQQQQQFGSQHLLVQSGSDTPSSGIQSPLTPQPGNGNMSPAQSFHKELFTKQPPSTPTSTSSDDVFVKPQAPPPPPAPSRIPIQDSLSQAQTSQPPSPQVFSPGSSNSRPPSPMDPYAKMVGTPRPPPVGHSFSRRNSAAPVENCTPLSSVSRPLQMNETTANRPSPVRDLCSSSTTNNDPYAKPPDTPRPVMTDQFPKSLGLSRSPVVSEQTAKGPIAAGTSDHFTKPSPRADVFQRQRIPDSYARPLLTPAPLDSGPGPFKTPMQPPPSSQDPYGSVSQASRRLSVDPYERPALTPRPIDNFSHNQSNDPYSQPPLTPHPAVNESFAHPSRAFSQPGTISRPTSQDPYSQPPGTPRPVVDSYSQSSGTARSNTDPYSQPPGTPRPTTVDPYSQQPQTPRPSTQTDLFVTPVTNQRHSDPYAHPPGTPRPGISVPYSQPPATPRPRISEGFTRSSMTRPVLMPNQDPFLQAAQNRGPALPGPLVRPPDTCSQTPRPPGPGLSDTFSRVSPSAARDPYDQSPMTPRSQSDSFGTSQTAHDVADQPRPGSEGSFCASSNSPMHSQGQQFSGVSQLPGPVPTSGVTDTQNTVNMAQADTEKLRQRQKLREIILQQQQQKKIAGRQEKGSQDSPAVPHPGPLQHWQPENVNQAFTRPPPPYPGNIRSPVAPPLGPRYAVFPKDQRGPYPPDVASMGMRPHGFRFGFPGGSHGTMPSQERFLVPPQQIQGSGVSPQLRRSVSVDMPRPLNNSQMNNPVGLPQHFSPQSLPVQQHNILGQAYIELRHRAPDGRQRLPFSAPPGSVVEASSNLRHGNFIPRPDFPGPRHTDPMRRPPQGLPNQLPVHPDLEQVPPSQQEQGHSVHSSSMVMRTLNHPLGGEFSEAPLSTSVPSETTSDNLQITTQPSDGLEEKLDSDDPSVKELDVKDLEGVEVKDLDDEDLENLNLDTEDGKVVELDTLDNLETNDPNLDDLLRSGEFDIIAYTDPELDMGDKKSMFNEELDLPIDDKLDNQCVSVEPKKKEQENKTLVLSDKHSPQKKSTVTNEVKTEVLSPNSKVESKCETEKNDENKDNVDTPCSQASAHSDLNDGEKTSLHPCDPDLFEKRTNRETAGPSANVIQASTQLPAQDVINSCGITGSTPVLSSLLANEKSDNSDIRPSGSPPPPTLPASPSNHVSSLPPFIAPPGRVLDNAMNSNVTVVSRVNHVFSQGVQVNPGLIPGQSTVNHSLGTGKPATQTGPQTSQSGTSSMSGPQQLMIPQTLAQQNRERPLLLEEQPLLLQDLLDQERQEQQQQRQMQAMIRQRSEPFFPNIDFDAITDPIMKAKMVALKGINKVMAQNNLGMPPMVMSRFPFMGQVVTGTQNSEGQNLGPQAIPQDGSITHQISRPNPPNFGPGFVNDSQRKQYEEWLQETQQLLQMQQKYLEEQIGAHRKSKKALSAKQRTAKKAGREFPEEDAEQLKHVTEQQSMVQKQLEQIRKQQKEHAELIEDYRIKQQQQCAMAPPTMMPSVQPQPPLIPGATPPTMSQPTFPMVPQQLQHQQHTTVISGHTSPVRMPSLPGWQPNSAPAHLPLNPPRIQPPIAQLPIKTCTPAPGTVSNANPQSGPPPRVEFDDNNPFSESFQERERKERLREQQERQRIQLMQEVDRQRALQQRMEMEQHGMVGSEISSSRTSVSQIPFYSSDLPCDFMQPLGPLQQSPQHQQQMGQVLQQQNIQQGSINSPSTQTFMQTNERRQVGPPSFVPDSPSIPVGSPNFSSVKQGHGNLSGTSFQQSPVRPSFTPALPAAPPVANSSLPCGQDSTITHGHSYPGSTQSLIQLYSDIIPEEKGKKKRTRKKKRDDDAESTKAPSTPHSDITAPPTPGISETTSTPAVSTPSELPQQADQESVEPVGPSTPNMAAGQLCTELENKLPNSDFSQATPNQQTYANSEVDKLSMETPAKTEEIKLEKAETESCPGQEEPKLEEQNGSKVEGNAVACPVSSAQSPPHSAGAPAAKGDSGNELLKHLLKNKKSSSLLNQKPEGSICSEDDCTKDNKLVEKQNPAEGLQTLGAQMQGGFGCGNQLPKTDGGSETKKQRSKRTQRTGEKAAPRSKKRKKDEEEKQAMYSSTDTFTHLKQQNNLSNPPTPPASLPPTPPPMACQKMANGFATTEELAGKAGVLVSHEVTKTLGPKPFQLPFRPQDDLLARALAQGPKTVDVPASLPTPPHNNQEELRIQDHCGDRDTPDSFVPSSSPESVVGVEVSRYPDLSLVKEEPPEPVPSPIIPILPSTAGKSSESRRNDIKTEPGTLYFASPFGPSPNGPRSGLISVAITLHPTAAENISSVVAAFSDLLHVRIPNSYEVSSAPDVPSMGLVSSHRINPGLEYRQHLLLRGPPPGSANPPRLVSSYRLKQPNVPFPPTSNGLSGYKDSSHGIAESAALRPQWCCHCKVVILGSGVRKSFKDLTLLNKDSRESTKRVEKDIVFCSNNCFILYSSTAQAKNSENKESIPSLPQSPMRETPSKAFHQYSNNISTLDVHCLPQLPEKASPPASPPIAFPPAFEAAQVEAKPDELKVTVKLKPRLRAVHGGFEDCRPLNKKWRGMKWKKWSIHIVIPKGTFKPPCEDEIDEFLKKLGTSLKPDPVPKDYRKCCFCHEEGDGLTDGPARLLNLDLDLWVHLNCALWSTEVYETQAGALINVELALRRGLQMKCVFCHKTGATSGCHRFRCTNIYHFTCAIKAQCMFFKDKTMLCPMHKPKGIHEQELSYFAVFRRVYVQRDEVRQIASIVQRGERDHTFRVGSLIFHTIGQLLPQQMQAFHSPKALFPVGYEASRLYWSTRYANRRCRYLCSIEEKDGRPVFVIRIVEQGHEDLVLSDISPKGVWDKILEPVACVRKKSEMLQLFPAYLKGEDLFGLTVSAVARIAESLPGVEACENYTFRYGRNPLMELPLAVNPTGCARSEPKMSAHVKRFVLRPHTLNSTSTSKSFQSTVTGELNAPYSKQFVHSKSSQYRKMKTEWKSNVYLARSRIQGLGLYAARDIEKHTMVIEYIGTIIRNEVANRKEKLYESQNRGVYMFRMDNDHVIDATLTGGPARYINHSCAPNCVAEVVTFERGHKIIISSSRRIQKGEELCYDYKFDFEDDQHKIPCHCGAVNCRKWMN
Assay name: Inhibition of MLL3 (unknown origin) using biotin-labeled histone substrate assessed as residual activity at 50 uM in presence of [3H-Me]SAM by scintillation proximity assay relative to control
Quantity name: Activity (%)

> print(dat)
                                    compound  recorded.number
 1        CN1CCCC12CCN(C(=O)c1cccc(Br)c1)CC2              106
 2    O=C(c1cccc(Br)c1)N1C[C@H]2CCCN[C@H]2C1              116
 3  O=C(c1cccc(Br)c1)N1CC[C@@H]2[C@@H](CC3CCCCN32)C1 (some centres not stated)               97
 4  O=C(c1cccc(Br)c1)N1CCC[C@@H]2CNC[C@@H]21              108
 5  O=C(c1cccc(Br)c1)N1CCCC2(CCCCN2)C1 (configuration not stated)              101
 6  CN1CCCC12CCCN(C(=O)c1cccc(Br)c1)C2 (configuration not stated)              105
 7     CN1CCC2(CC1)CCN(C(=O)c1cccc(Br)c1)CC2               99
 8  CN1CC[C@H]2CN(C(=O)c3cccc(Br)c3)C[C@H]21              105
 9  CN1C[C@H]2CCCN(C(=O)c3cccc(Br)c3)[C@H]2C1              105
10    O=C(c1cccc(Br)c1)N1CC[C@H]2NCC[C@H]2C1              103
11  C[N+]1(C)CCCCC12CCN(C(=O)c1cccc(Br)c1)CC2               96
12  O=C(c1cccc(Br)c1)N1CCC2CNCC2C1 (configuration not stated)              104

----------
System under test: Histone-lysine N-methyltransferase ASH1L (Homo sapiens) (UniProt Q9NR48)
Assay name: Inhibition of ASH1L (unknown origin) using biotin-labeled histone substrate assessed as residual activity at 50 uM in presence of [3H-Me]SAM by scintillation proximity assay relative to control
Quantity name: Activity (%)

> print(dat)
                                   molecule  quantity.name  recorded.number
1  O=C(c1cccc(Br)c1)N1C[C@@H]2CC3CCCN3[C@@H]2C1 (stereo partly specified)       Activity              108
2  CN1CCCC2(CCCN2C(=O)c2cccc(Br)c2)C1 (stereo unspecified)       Activity               99
3  O=C(c1cccc(Br)c1)N1CCC2CNCC2C1 (stereo unspecified)       Activity              103
4  O=C(c1cccc(Br)c1)N1CC[C@@H]2[C@@H](CC3CCCCN32)C1 (stereo partly specified)       Activity               95
5  CN1CC[C@H]2CN(C(=O)c3cccc(Br)c3)C[C@H]21       Activity              102
6        O=C(c1cccc(Br)c1)N1CCC2(CCNCC2)CC1       Activity               95

Every entry's value here was drawn from ChEMBL document CHEMBL4477270.
